For each of the molecules below, state its Percent Effect.
- system: Shiga toxin 2 (Escherichia coli O157:H7) (UniProt P09385+P09386)
- assay name: E. coli 0.157:H7 Shiga Toxin SOP - stx2 screening assay
- Format: functional
- Parameters: scale not given: direction of the effect not stated beside the values
- setup conditions: 30 µM
The figure you give is taken to be in %; do not add the unit.

Prompt line: Dear colleague, I am looking for the recorded Percent Effect of the following molecule: Cc1ccc(NC2CCN(C(=O)c3cccc(F)c3F)CC2)nn1
Response line: -17

Prompt line: Dear colleague, I am looking for the recorded Percent Effect of the following molecule: Cc1cc(C(=O)O)cc(S(=O)(=O)Nc2ccc3c(c2)OCO3)c1C
Response line: -48

Prompt line: Dear colleague, I am looking for the recorded Percent Effect of the following molecule: COCCN1CC(C(=O)NCc2ccnc(-n3cccn3)c2)CC1=O (stereo not given)
Response line: -36.8

Prompt line: Dear colleague, I am looking for the recorded Percent Effect of the following molecule: Oc1ccc(N2CCN(Cc3cc4c(cc3Br)OCCO4)CC2)cc1
Response line: 6.03

Prompt line: Dear colleague, I am looking for the recorded Percent Effect of the following molecule: Cc1noc(C)c1CNC(=O)N1CCN(Cc2cscn2)CC1
Response line: 1.78

Prompt line: Dear colleague, I am looking for the recorded Percent Effect of the following molecule: Cc1cccc(CN2CCc3ncnc(N4CCOCC4)c3CC2)n1
Response line: -8.89

Prompt line: Dear colleague, I am looking for the recorded Percent Effect of the following molecule: Cn1cnc(S(=O)(=O)NCCCN2CCOCC2)c1Cl
Response line: 18.7

Prompt line: Dear colleague, I am looking for the recorded Percent Effect of the following molecule: O=C1CC(N(C(=O)c2ccc3[nH]c4c(c3c2)CCCC4)C2CC2)C(=O)N1 (stereo not given)
Response line: -28.8

Prompt line: Dear colleague, I am looking for the recorded Percent Effect of the following molecule: CCc1nc(C(=O)N2CCN(C)CC2C)nn1-c1ccccc1Cl (stereo not given)
Response line: 26.3

Prompt line: Dear colleague, I am looking for the recorded Percent Effect of the following molecule: CN1CCCCC1c1ncc2c(n1)CCN(Cc1ccccc1Cl)C2 (stereo not given)
Response line: -22.5
